Measured Plant response rating (0 to 100 scale), Kochia by item
# Tested on: kochia (Kochia scoparia)
# testSummary: Test A preemergence, directed soil spray, visual injury rating
# Type: in vivo
# experimentalParameters: 125 g ai/ha, 0 is no effect, 100 is complete control
// no unit string in output, number only

Some entries whose results are on file:
| molecule | valueObserved |
| --- | --- |
| CCC(=O)Oc1c(C)nn(C)c(=O)c1-c1ccc(Cl)c2oc(C)cc12 [Compound 52] | 0 |
| Cn1nc(Cl)c(O)c(-c2cccc3c2nnn3C)c1=O [Compound 61] | 0 |
| Cc1nn(C)c(=O)c(-c2c(C)sc3ncccc23)c1O [Compound 14] | 0 |
| CCc1sc2ncccc2c1-c1c(OC(=O)OC(C)C)c(C)nn(C)c1=O [Compound 20] | 0 |
| CCc1sc2ncccc2c1-c1c(OC(=O)C2CC2)c(C)nn(C)c1=O [Compound 21] | 0 |

Given Cc1ccc2ccoc2c1-c1c(O)c(C)nn(C)c1=O [Compound 7] , respond with its Plant response rating (0 to 100 scale), Kochia.
30

Given Cc1nn(C)c(=O)c(-c2c(C)sc3ncccc23)c1OC(=O)OC(C)C [Compound 15] , respond with its Plant response rating (0 to 100 scale), Kochia.
0

Given Cc1nn(C)c(=O)c(-c2ccc(Cl)c3sc(Br)cc23)c1O [Compound 37] , respond with its Plant response rating (0 to 100 scale), Kochia.
0

Given CCOC(=O)Oc1c(C)nn(C)c(=O)c1-c1c(CC)sc2ncccc12 [Compound 19] , respond with its Plant response rating (0 to 100 scale), Kochia.
0

Given Cc1cc2c(Cl)ccc(-c3c(OC(=O)c4ccccc4)c(C)nn(C)c3=O)c2o1 [Compound 39] , respond with its Plant response rating (0 to 100 scale), Kochia.
0

Given Cn1nc(Cl)c(O)c(-c2cccc3[nH]nnc23)c1=O [Compound 38] , respond with its Plant response rating (0 to 100 scale), Kochia.
0

Given Cc1nn(C)c(=O)c(-c2cccc3sccc23)c1O [Compound 32] , respond with its Plant response rating (0 to 100 scale), Kochia.
30

Given COC(=O)Oc1c(C)nn(C)c(=O)c1-c1c(C)ccc2cc(C)oc12 [Compound 17] , respond with its Plant response rating (0 to 100 scale), Kochia.
100

Given Cc1ccc2sc(Cl)cc2c1-c1c(O)c(C)nn(C)c1=O [Compound 46] , respond with its Plant response rating (0 to 100 scale), Kochia.
80

* * *

# System: kochia (Kochia scoparia)
# testSummary: Test A preemergence, directed soil spray, visual injury rating
# Assay type: in vivo
# experimentalParameters: 125 g ai/ha, 0 is no effect, 100 is complete control
Measured Plant response rating (0 to 100 scale), Kochia by item
// no unit string in output, number only

Look up and report measured Plant response rating (0 to 100 scale), Kochia (kochia (Kochia scoparia)) for the following compound: CCC(=O)Oc1c(C)nn(C)c(=O)c1-c1cccc2cc(C)oc12
30

Look up and report measured Plant response rating (0 to 100 scale), Kochia (kochia (Kochia scoparia)) for the following compound: CCC(=O)Oc1c(C)nn(C)c(=O)c1-c1ccc(Cl)c2ccsc12
0

Look up and report measured Plant response rating (0 to 100 scale), Kochia (kochia (Kochia scoparia)) for the following compound: Cc1nn(C)c(=O)c(-c2c(Br)ccc3c2cnn3C)c1O
0

Look up and report measured Plant response rating (0 to 100 scale), Kochia (kochia (Kochia scoparia)) for the following compound: COC(=O)Oc1c(C)nn(C)c(=O)c1-c1ccc(Cl)c2ccsc12
20

These data points were gathered from patent US10750743B2.
